conditions: 308.15 K; 101.3 kPa; Liquid; Vibrating tube method
The entries below come with measured mass density values attached.
Record the value in kg/m3, omitting the unit from your answer.

The cases that follow already have their mass density on record.
molecule	measurement.units	mass density
CCCO [propan-1-ol]	kg/m3	791.426
CCCCCCO [hexan-1-ol]	kg/m3	807.984
CCCCCCCCO [octan-1-ol]	kg/m3	814.686
CCCCCCCCCO [nonan-1-ol]	kg/m3	817.362

Now turn to the next molecule.
The reported mass density of the molecule CO [methanol] was 777.326

---

mass density values, listed per item
details: 293.15 K; 101.3 kPa; Liquid; Vibrating tube method
Respond numerically; units are kg/m3 and should not be typed.

compound	endpoint.name	test.value
CCCO [propan-1-ol]	mass density	803.527
CCCCCCO [hexan-1-ol]	mass density	818.749
CCCCCCCCO [octan-1-ol]	mass density	825.093

Given item CO [methanol] , the value recorded as its mass density is 791.494

The value of mass density measured for the compound CCCCCCCCCO [nonan-1-ol] turned out to be 827.667

---

settings: 303.15 K; 101.3 kPa; Liquid; Vibrating tube method
# reported mass density; entries follow
Express your answer in kg/m3, writing the number without its unit.

entry.smiles	endpoint.name	measurement.units	test.value
CO	mass density	kg/m3	782.071
CCCO	mass density	kg/m3	795.493
CCCCCCO	mass density	kg/m3	811.6

So, CCCCCCCCO ? Its mass density was 818.177

Recorded result, CCCCCCCCCO , mass density: 820.815

---

This section presents molecules with their documented mass density values.
details: 298.15 K; 101.3 kPa; Liquid; Vibrating tube method
Numbers after ± are expanded uncertainties.

molecule	mass density
CCCCCCCCCO	824.254 ± 0.24 kg/m3
CCCO	799.528 ± 0.14 kg/m3
CC(O)CO (stereo unspecified)	1032.55 ± 0.13 kg/m3 [middle of 4 runs]
CCCCCCCCO	821.647 ± 0.24 kg/m3
CCCCCCO	815.188 ± 0.24 kg/m3

The record that follows has no mass density shown yet.
The reported mass density of the molecule CO was 786.794 ± 0.17 kg/m3

---

details: 318.15 K; 101.3 kPa; Liquid; Vibrating tube method
endpoint.name: mass density (kg/m3)
Give a bare numeral; the unit kg/m3 is implied.

CCCO 783.164
CCCCCCCCCO 810.385
CO 767.744
CCCCCCO 800.657

Proceed to the following item.
For CCCCCCCCO the compound record lists mass density as 807.629

---

details: 313.15 K; 101.3 kPa; Liquid; Vibrating tube method
endpoint.name: mass density (kg/m3)
A number alone suffices; assume kg/m3.

The following molecules have reported results that may help.
molecule	measurement.units	mass density
CCCCCCCCO [octan-1-ol]	kg/m3	811.171
CO [methanol]	kg/m3	772.55
CCCCCCO [hexan-1-ol]	kg/m3	804.339

Query CCCO [propan-1-ol] yields mass density of 787.32

Value of mass density reported for the molecule CCCCCCCCCO [nonan-1-ol] is 813.885
